# Measurement Notes: plasma kinetics of daunomycin in rats, intravenous
# Test Conditions: rat, in vivo, iv, 10 mg/kg
Test Readout: concentration at 1 h

**Q:** Given COc1cccc2c1C(=O)c1c(O)c3c(c(O)c1C2=O)C[C@@](O)(C(C)=O)C[C@@H]3O[C@H]1C[C@H](N)[C@H](O)[C@H](C)O1 [daunomycin] , respond with its concentration at 1 h.
**A:** ~500 ng/mL
